# Species: Capra hircus
# test method notes: Inhibition of hydrogen potassium ATPase in goat stomach mucosal membrane assessed as decrease in inorganic phosphate production using ATP as substrate after 10 to 15 mins by spectrophotometric analysis relative to omeprazole
# Assay type: cell membranes
# Design: concentration or dose not given beside the values
Task for the reader: assign each of the following compounds its reported inhibition.

COc1cc(CS(=O)(=O)c2nc3cc(OC(F)F)ccc3[nH]2)ccc1OCc1nccc(OCC(F)(F)F)c1C ... 70.6%
COCCCOc1ccnc(COc2ccc(CS(=O)(=O)c3nc4cc(OC)ccc4[nH]3)cc2OC)c1C ... 80.2%
COc1ccc2[nH]c(S(=O)(=O)Cc3ccc(OCc4nccc(OC)c4OC)c(OC)c3)nc2c1 ... 78.2%
COCCCOc1ccnc(COc2ccc(CS(=O)(=O)c3nc4cc(OC(F)F)ccc4[nH]3)cc2OC)c1C ... 96.3%
COc1ccc2[nH]c([S+]([O-])Cc3ncc(C)c(OC)c3C)nc2c1 (stereo not drawn) [OMEPRAZOLE] ... 82.1%
COCCCOc1ccnc(COc2ccc(CS(=O)(=O)c3nc4ccccc4[nH]3)cc2OC)c1C ... 81%

Below are some compounds; for each one, tell me its inhibition.
1. COc1cc(CS(=O)(=O)c2nc3cc(OC(F)F)ccc3[nH]2)ccc1OCc1nccc(OC)c1OC
2. COc1cc(CS(=O)(=O)c2nc3ccccc3[nH]2)ccc1OCc1ncc(C)c(OC)c1C

Ans.
1: 94.4%; 2: 70.5%

Below are some compounds; for each one, tell me its inhibition.
1. COc1ccc2[nH]c(S(=O)(=O)Cc3ccc(OCc4ncc(C)c(OC)c4C)c(OC)c3)nc2c1
2. COc1cc(CS(=O)(=O)c2nc3cc(OC(F)F)ccc3[nH]2)ccc1OCc1ncc(C)c(OC)c1C

Ans.
1: 76.3%; 2: 73.2%

Values compiled from ChEMBL document CHEMBL4190327.
